Reported TGI by item:
# Tested on: RPMI-8226 leukemia
# ASSAY NAME: NCI tumour cell line growth inhibition, 48 h

>  <GIVEN SMILES>
COc1ccc(C(=O)/C=C/c2cc(C(F)(F)F)cc(C(F)(F)F)c2)cc1S(N)(=O)=O

>  <TGI>
> 100 µM

$$$$
>  <GIVEN SMILES>
Cc1nn(-c2ccccc2)c2nc(C)n(CC(=O)N/N=C/c3ccccc3O)c(=O)c12

>  <TGI>
48.4 µM

$$$$
>  <GIVEN SMILES>
Clc1ccc(-c2nc3ccc(-c4nnc(SCc5ccccc5)o4)cc3[nH]2)cc1

>  <TGI>
> 100 µM

$$$$
>  <GIVEN SMILES>
COc1ccc(-c2cc(C(=O)N=Nc3c(O)[nH]c4ccccc34)c3ccccc3n2)cc1

>  <TGI>
> 100 µM

$$$$
>  <GIVEN SMILES>
Cc1ccc(-c2cc(C(=O)N=Nc3c(O)[nH]c4ccc(F)cc34)c3ccccc3n2)cc1

>  <TGI>
> 100 µM

$$$$
>  <GIVEN SMILES>
COc1ccc(-c2cc(C(=O)N=Nc3c(O)[nH]c4ccc(Cl)cc34)c3ccccc3n2)cc1

>  <TGI>
> 100 µM

$$$$
